test system: LOX IMVI melanoma; test: NCI tumour cell line growth inhibition, 48 h
endpoint-label: TGI

Solved cases below.
>  <compound>
Cc1n[nH]c(=O)n1/N=C/c1cccnc1

>  <TGI>
> 100 µM

$$$$
>  <compound>
O=c1c2c3c(sc2nc2n1N=CN(c1ccc(Cl)cc1)C2)CCCC3

>  <TGI>
> 100 µM

$$$$
>  <compound>
CCO/C(O)=C(/C(=N)N1CCCC1)C(=O)Nc1ccc(Cl)cc1

>  <TGI>
> 100 µM

$$$$
>  <compound>
COc1cc(-c2nc3ccccc3s2)ccc1OCc1nc2n(n1)S(=O)(=O)c1ccccc1N2C

>  <TGI>
> 100 µM

$$$$
>  <compound>
Nc1nncs1

>  <TGI>
> 5000 µM

$$$$
>  <compound>
Cc1ccnc2nc3[nH]c4ccccc4c3cc12

>  <TGI>
> 100 µM

$$$$
>  <compound>
O=S1c2ccc(Cl)cc2CC(SSC2Cc3cc(Cl)ccc3S(=O)c3ccccc32)c2ccccc21 (stereo not drawn)

>  <TGI>
> 100 µM

$$$$
>  <compound>
COc1cc(/C=N/NC2=NCCCN2)ccc1O

>  <TGI>
> 100 µM

$$$$

Look up TGI for the entries below, preserving their order.
1. COC1CC2CCC(C)[C@](O)(O2)C(=O)C(=O)N2CCCCC2C(=O)OC(C(C)CC2CCC(O)C(OC)C2)CC(=O)C(C)C=C(C)C(OC(=O)CN(C)C)C(OC)C(=O)C(C)CC(C)/C=C/C=C/C=C\1C (stereo partly drawn)
2. CC(=O)OCC1OC(S[As](C)C)C(OC(C)=O)C1OC(C)=O (stereo not drawn)
3. O=C1/C(=C/c2ccccc2)CCCC/C1=C\c1ccccc1
4. Cc1nc2ccc(N=NN(C)C)cc2[nH]1
5. ON(CCc1ccccn1)Cc1ccccc1
6. COc1ccc(-n2cnc3c(NC(C)(C)C(=O)O)ncnc32)cc1
7. Nc1ccc(C(=O)NN2C(=O)C(Cl)C2c2ccccc2O)cc1 (stereo not drawn)

16.7 µM
0.991 µM
> 100 µM
> 100 µM
> 100 µM
> 100 µM
> 100 µM

Take each entry in turn and give its TGI.
1. Cc1ccnc2c1ccc1nc3ccccc3n12
2. COc1cccc2c1c1nc3cc(C)c(C)cc3nc1n2CCN(C)C
3. C=C[C@]1(C)C=C2C(=O)[C@@]3(O)OC(=O)[C@@]4(CCCC(C)(C)[C@H]34)[C@@]2(O)CC1

1. > 100 µM
2. 8.7 µM
3. 3.24 µM

Provide TGI values for the following items, in order.
1. CN(CCC(=O)O)S(=O)(=O)c1ccccc1
2. CN(C)CC1CCn2c(c(C3=C(c4cn(C)c5ccccc45)C(=O)NC3=O)c3ccccc32)C1 (stereo not drawn)
3. N=C(N)C1CN(CC=O)C(=O)NC1=O (stereo not drawn)
4. [N-]=[N+]=CC(=O)OCC(N)C(=O)O (stereo not drawn)
5. CCOC(=O)/C=C1\Nc2ccccc2-n2nnnc21
6. NC(=O)c1cc(C2OC(CO)C(O)C2O)nn1-c1ccc([N+](=O)[O-])cc1 (stereo not drawn)

1. > 100 µM
2. 7.83 µM
3. > 100 µM
4. > 100 µM
5. > 100 µM
6. > 100 µM
